# system_under_test: 5-hydroxytryptamine receptor 1E (Homo sapiens) (UniProt P28566)
# Sequence (P28566 whole entry, looked up): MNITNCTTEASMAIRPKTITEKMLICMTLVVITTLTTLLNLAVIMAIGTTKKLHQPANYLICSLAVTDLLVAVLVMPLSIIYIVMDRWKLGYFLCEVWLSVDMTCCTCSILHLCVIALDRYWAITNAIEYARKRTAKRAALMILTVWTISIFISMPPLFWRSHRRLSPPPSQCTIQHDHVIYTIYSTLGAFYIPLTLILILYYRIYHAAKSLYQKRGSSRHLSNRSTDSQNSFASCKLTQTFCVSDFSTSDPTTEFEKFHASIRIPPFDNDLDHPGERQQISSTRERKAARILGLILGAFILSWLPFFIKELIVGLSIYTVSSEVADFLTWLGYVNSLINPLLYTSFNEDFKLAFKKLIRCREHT
# assay_method_text: activation of human serotonin 5HT1E receptor – cell-based, HTS, primary screen (AID 574);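 also: 100% = positive control agonist at 1 µM giving full maximal response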
# condition_description: CHO 5-HT1E Ga15 NFAT-bla reporter, FRET; at 6 µM; hits give high values
Hit rate of the full screen: of about 65,000 compounds, about 450 (0.69%) were called active. The sample as a whole holds a higher share of actives than the screen did.
# activation per record follows
The response must be a number in % with no trailing unit.

Query :: Please report the recorded activation for O=C1NC(=O)C(C/C=C/c2ccccc2)C(=O)N1 .
Result :: 0.1

Query :: activation for COc1ccccc1CN1CCN(C(=O)Cc2ccccc2)CC1 ?
Result :: -0.5

Query :: What does the record list as activation for Fc1cccc(F)c1CN1CCN(Cc2c(F)cccc2F)CC1 ?
Result :: 1.1

Query :: Param item = CC(=NC1CCN(Cc2ccccc2)CC1)c1c(O)n(C)c(=O)n(C)c1=O ; retrieve measured activation.
Result :: 0

Query :: Quick one: activation of COc1ccc(CN2CCN(c3ccccc3F)CC2)c(OC)c1 ?
Result :: 54.1

Query :: I'd like to know its activation. The compound in question is CC[N+]1(C)CCCC(OC(=O)C(O)(c2ccccc2)c2ccccc2)C1 (stereo not drawn)
Result :: -0.1

Query :: Recorded activation of c1ccc2sc(C3CCCNC3)nc2c1 (stereo not drawn) , please.
Result :: 98.8

Query :: For the compound shown here, CCOP(=S)(OCC)SCOC(=O)NCC(=O)OC , give the reported activation.
Result :: -0.2
